Record form. Attribute: pIC50. Fill in for each entry.
molecular target: Arachidonate 5-lipoxygenase-activating protein (Homo sapiens, UniProt P20292); assay: Displacement of [125I]L-691,831 from 5-lipoxygenase-activating protein in human polymorphonuclear cells
Sequence (P20292 whole entry): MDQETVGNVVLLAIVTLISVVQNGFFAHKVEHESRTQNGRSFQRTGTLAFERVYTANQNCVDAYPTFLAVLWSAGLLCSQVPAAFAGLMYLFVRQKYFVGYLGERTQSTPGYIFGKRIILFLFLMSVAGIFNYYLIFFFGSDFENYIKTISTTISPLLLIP
The scale used: pIC50 is minus the common logarithm of the concentration in molar units.

Value of measured pIC50 for the entry CCn1nnc(-c2ccc(OCc3ccc4ccccc4n3)cc2[C@]2(c3ccccc3)C[C@H]3CC[C@H]2C3)n1 (racemic) : 8.62

Value of measured pIC50 for the entry Nc1nnc(-c2ccc(OCc3ccc4ccccc4n3)cc2[C@]2(c3ccccc3)C[C@H]3CC[C@H]2C3)o1 (racemic) : 8.66

Value of measured pIC50 for the entry c1ccc([C@@]2(c3cc(OCc4ccc5ccccc5n4)ccc3-c3nnn[nH]3)C[C@H]3CC[C@H]2C3)cc1 (racemic) : 8.54

Value of measured pIC50 for the entry COC(=O)c1ccc(OCc2ccc3ccccc3n2)cc1[C@]1(c2cccc(C(F)(F)F)c2)C[C@H]2CC[C@H]1C2 (racemic) : 8.13

Value of measured pIC50 for the entry `O=c1[nH]nc(-c2ccc(OCc3ccc4ccccc4n3)cc2[C@@]2(c3ccccc3)C[C@H]3CC[C@H]2C3)o1` : 9.10

Value of measured pIC50 for the entry `COC(=O)c1ccc(OCc2ccc3ccccc3n2)cc1C1(c2ccccc2)CC(F)(F)C1` : 7.30

Value of measured pIC50 for the entry COC(=O)c1ccc(OCc2ccc3ccccc3n2)cc1[C@]1(c2cccc(F)c2)C[C@H]2CC[C@H]1C2 (racemic) : 8.64

Value of measured pIC50 for the entry Cc1nc(-c2ccc(OCc3ccc4ccccc4n3)cc2[C@]2(c3ccccc3)C[C@H]3CC[C@H]2C3)no1 (racemic) : 8.80

Value of measured pIC50 for the entry COC(=O)c1ccc(OCc2ccc3ccccc3n2)cc1C(c1ccccc1)C(C)(C)C (racemic) : 8.26

Value of measured pIC50 for the entry `COC(=O)c1ccc(OCc2ccc3ccccc3n2)cc1C1(c2ccccc2)CCCC1` : 8.07

Value of measured pIC50 for the entry COC(=O)c1ccc(OCc2ccc3ccccc3n2)cc1[C@]1(c2cc(C)cc(C)c2)C[C@H]2CC[C@H]1C2 (racemic) : 8.46

Value of measured pIC50 for the entry O=C(c1ccc(OCc2ccc3ccccc3n2)cc1[C@]1(c2ccccc2)C[C@H]2CC[C@H]1C2)N1CCCC1 (racemic) : 8.15

Value of measured pIC50 for the entry COC(=O)c1ccc(OCc2ccc3ccccc3n2)cc1C1(c2ccccc2)C2CCC1CC2 (centres undefined) : 8.25

Value of measured pIC50 for the entry Cc1noc(-c2ccc(OCc3ccc4ccccc4n3)cc2[C@]2(c3ccccc3)C[C@H]3CC[C@H]2C3)n1 (racemic) : 8.20

Value of measured pIC50 for the entry Cn1nnc(-c2ccc(OCc3ccc4ccccc4n3)cc2[C@]2(c3ccccc3)C[C@H]3CC[C@H]2C3)n1 (racemic) : 8.55

Value of measured pIC50 for the entry `COC(=O)c1ccc(OCc2ccc3ccccc3n2)cc1C(C)(C)c1ccccc1` : 7.24

Value of measured pIC50 for the entry `CC(C)(C)[C@@H](c1ccccc1)c1cc(OCc2ccc3ccccc3n2)ccc1-c1n[nH]c(=O)o1` : 8.72

Value of measured pIC50 for the entry COC(=O)c1ccc(OCc2ccc3ccccc3n2)cc1[C@]1(c2ccccc2F)C[C@H]2CC[C@H]1C2 (racemic) : 8.40

Value of measured pIC50 for the entry FC(F)n1nnc(-c2ccc(OCc3ccc4ccccc4n3)cc2[C@]2(c3ccccc3)C[C@H]3CC[C@H]2C3)n1 (racemic) : 8.62
